Target: Mycobacterium tuberculosis InhA (Mycobacterium tuberculosis)
Experiment: InhA biochemical inhibition assay
Details: tested up to 1 mM
QUANTITY KIND: InhA pIC50 ^[a][e] (% 500 μM)

Consider the following illustrative entries.
Cc1cc(N)n(Cc2ccccc2)n1
3.4±0.23
Cc1cc(N)n(Cc2nnc(Nc3ccn(Cc4c(F)cccc4Cl)n3)s2)n1
7.3±0.20
O=c1[nH]c(CC2CCCCC2)cc(O)c1C1CCN(c2ncccn2)CC1
6.5±0.03
Cc1cc(N)n(Cc2ccc(C(=O)NCc3ccc(F)cc3Cl)cc2)n1
6.3±0.25

Look up InhA pIC50 ^[a][e] (% 500 μM) for this compound: `Cc1cncc(CNC(=O)NC2CCN(c3ncccn3)CC2)c1` 5.0±0.14

Another compound: `O=C(NCc1cccnc1)NC1CCN(c2ncccn2)CC1` 4.1±0.06

====

Biological target: Mycobacterium tuberculosis InhA (Mycobacterium tuberculosis, UniProt P9WGR1)
Sequence (P9WGR1 whole entry, looked up): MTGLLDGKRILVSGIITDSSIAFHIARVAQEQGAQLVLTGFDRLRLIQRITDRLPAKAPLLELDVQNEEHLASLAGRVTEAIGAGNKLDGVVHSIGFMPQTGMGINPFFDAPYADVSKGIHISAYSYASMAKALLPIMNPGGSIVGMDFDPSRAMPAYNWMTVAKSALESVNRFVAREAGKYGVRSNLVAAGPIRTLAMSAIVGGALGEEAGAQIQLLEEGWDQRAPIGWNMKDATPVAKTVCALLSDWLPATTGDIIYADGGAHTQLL
Test: surface plasmon resonance, equilibrium
Assay type: binding
Conditions: read-out: SPR pK d ^[f] (converted)
QUANTITY KIND: Kd (µM)
Only the number, expressed in µM, is required.

Cc1cncc(CNC(=O)NC2CCCCC2)c1 [compound 38, 38]
631
Cc1cc(N)n(Cc2ccc(C(=O)NCc3ccc(F)cc3Cl)cc2)n1 [compound 46, 46]
0.501

Look up Kd for this compound: Cc1cc(N)n(Cc2nnc(Nc3ccn(Cc4c(F)cccc4Cl)n3)s2)n1 [compound 47, 47] 0.0794

Another compound: Cc1cc(N)n(Cc2ccccc2)n1 [compound 9, 9] 501

Another compound: Cc1cncc(CNC(=O)NC2CCN(c3ncccn3)CC2)c1 [compound 39, 39] 20

Another compound: CC(C)Cc1cc(O)c(C2CCN(c3ncccn3)CC2)c(=O)[nH]1 [compound 43, 43] 200

====

Target: Mycobacterium tuberculosis InhA (Mycobacterium tuberculosis, UniProt P9WGR1)
Assay: InhA biochemical inhibition assay
Settings: read-out: InhA pIC50 ^[a][e] (% 500 μM) (converted)
Text: InhA biochemical inhibition assay on Mycobacterium tuberculosis InhA
QUANTITY KIND: IC50

Consider the following illustrative entries.
Cc1cncc(CNC(=O)NC2CCCCC2)c1
100 µM
OCc1ccc(Cn2cccn2)cc1
> 1000 µM
O=C(CCc1cccnc1)NC1CCN(c2ncccn2)CC1
> 1000 µM
CCOC(=O)[C@@H]1CCc2nc(C)sc2C1
794 µM
Cc1cc(=O)c(C2CCN(c3ncccn3)CC2)c(C)[nH]1
1 µM
Cc1cc(=O)c(-c2ccccc2)c(C)[nH]1
15.8 µM

Lab note: next compound to report on.
Look up IC50 for this compound: `CC(C)Cc1cc(O)c(C2CCN(c3ncccn3)CC2)c(=O)[nH]1` 6.31 µM

====

Biological target: UniProt:P9WGR1
Assay: surface plasmon resonance, equilibrium
Assay type: binding
Conditions: read-out: SPR pK d ^[f] (converted)
QUANTITY KIND: Kd (µM)
Only the number, expressed in µM, is required.

Cc1ccn(C(C)c2nnc(Nc3ccn(Cc4c(F)cccc4Cl)n3)s2)n1 (stereo not drawn)
0.01
Cc1cc(=O)c(C2CCN(c3ncccn3)CC2)c(C)[nH]1
6.31

Lab note: next molecule to report on.
Look up Kd for this molecule: `Cc1cc(=O)c(-c2ccccc2)c(C)[nH]1` 25.1

From: paper PMC5915743
